Answer each item with its documented EC50.
- Assayed System: T1, human B7-H7 on the cell surface (human, UniProt Q9UM44 23-414)
- T1 construct: whole, on cells; also called hB7-H7; hu B7-H7
- T1 sequence (looked up): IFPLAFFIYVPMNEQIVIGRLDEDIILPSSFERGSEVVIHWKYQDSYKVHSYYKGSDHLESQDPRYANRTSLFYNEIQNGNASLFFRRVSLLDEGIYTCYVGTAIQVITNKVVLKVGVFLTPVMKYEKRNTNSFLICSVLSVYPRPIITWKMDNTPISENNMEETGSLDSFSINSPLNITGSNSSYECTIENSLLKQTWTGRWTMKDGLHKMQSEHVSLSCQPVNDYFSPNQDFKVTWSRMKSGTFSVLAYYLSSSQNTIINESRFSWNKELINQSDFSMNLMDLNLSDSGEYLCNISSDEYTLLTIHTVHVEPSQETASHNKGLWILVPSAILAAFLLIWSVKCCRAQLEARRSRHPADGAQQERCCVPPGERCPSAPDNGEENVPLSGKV
- Assay Notes: flow cytometry, HEK-293/hu B7-H7 cells

Answered cases to consult:
Binder	EC50
PR003252 (antibody, human IgG1, kappa, V domains shown, Human IgG1; also called 53C12D4) VH: QVQLVESGGGVVQPGRSLRLSCAASGFTFSNYAMHWVRQVPGKGLEWVALIWYDGSEKYYADSVKGRFTISRDDSKNTLFLQMSSLRAEDTAVYSCVREYSSGWGYFDYWGQGTQVTVSS VL: DIQMTQSPSTLSASVGDRVTITCRASQSISSWLAWYQQKPGKAPKLLIYKASSLKSGVPSRFSGSGSGTEFTLTISSLQPDDFATYYCLQYNSYYTFGQGTKLEIKR	1.04 nM
PR003263 (antibody, human IgG1, kappa, V domains shown, Human IgG1; also called 77E6C4) VH: QVQLVESGGGVVQPGRSLRLSCAASGFTFSYYGLNWVRQAPGKGLEWVAVIWFDGTNKYYADSVKGRFTISRDDSKNTLYLQMNSLRAEDTAVYYCARGYGSGSYYNYVMDAWGQGASVTVSS VL: EIVMTQSPATLSVSPGERATLSCRASQSVSSNLAWYQQKPGQAPRLLIYGASTGATGIPARFSGSGSGTDFTLTISSLQSEDFAVYYCQQYYKWPLTFGGGTKVEIKR	1.06 nM
PR003265 (antibody, human IgG1, kappa, V domains shown, Human IgG1; also called 78G8B3) VH: QVQLVESGGGVVQPGRSLRLSCAASGFTFSTYGLHWVRQAPGKGLEWVAVIWYDESNEYYADSVKGRFTISRDNSKNTLYLQMNSLRAEDTALYYCARLAHDYGGTYFDYWGQGTLVTVSS VL: EIVMTQSPAILSVSPGERATLSCRASQSISYNLAWYQQKPGQAPRLLIYGASIRATGIPARFSGSGSGTDFTLTISSLQSEDFAVYYCQQYNNWPPWTFGQGTKVEIKR	1.24 nM

Now take the following binder into account.
Kindly note the recorded EC50 for PR003262 (antibody, human IgG1, kappa, V domains shown, Human IgG1; also called 77D5A4) VH: QVQLVESGGGVVQPGRSLRLSCAASGFTFSRYGIHWVRQAPGKGLEWVAVIWYNGRNKYYVDSVKGRFTISRDNSKNTLYLQMNSLRAEDTAVYYCARDGGYSYGPFDYWGQGTLVTVSS VL: EIVMTQSPATLSVSPGERATLSCRASQSFSNNLAWYQQKPGQAPRLLIYGASTRATGIPARFSGSGSGTEFTLTISSLQSEDFAVYYCHQYNIWPLTFGGGTKVEIKR , which is 1.33 nM
